# Tested on: MCF-7 cells
# assay.protocol: Breast cancer cell viability assay (CellTiter-Glo, 5 days)
# Format: cell-based
# setup.conditions: Homo sapiens, MCF7, 120 h, 5 days' compound exposure
property.measured: IC50

>  <smiles.data>
CC/C(=C(/c1ccc(/C=C/C(=O)O)cc1)c1ccc2[nH]ncc2c1)c1cccc(Oc2ccncc2C(F)(F)F)c1

>  <system.tested>
MCF-7 cells

>  <IC50>
> 100 nM

$$$$
>  <smiles.data>
O=C(O)/C=C/c1ccc(/C(=C(\c2ccc(F)cc2Cl)C2CC2)c2cccc3[nH]ncc23)cc1

>  <system.tested>
MCF-7 cells

>  <IC50>
≤ 100 nM

$$$$
>  <smiles.data>
O=C(/C=C/c1ccc(/C(=C(\c2ccccc2)C2CCC2)c2ccc3[nH]nc(F)c3c2)cc1)NCCO

>  <system.tested>
MCF-7 cells

>  <IC50>
≤ 100 nM

$$$$

Provide the reported IC50 of each entry below, same order.
1. CC/C(=C(/c1ccc(/C=C/C(=O)O)cc1)c1ccc2c[nH]c(=O)cc2c1)c1ccccc1
2. CC/C(=C(/c1ccc(/C=C/C(=O)O)cc1)c1ccc(O)nc1)c1ccccc1
3. CC/C(=C(/c1ccc(/C=C/C(=O)NC(C)C)cc1)c1ccc2[nH]ncc2c1)c1ccccc1
4. CC/C(=C(/c1ccc(/C=C/C(=O)O)cc1)c1ccc2[nH]ncc2c1)c1cccc(Oc2ccccc2S(C)(=O)=O)c1

Given back:
> 100 nM
> 100 nM
≤ 100 nM
> 100 nM

Hey, can you go through the list below and give me IC50 for every item?
1. CC/C(=C(/c1ccc(/C=C/C(=O)O)cc1)c1ccc2[nH]ncc2c1)c1cccc(-n2cccn2)c1
2. CC/C(=C(/c1ccc(/C=C/C(=O)O)cc1)c1ccc2nonc2c1)c1ccccc1
3. CC/C(=C(/c1ccc(/C=C/C(=O)O)cc1)c1ccc2[nH]ncc2c1)c1ccc2c(c1)CCO2
4. CC/C(=C(/c1ccc(/C=C/C(=O)O)cc1)c1ccc2[nH]ncc2c1)c1ccc(-c2cnccn2)cc1
5. CC/C(=C(/c1ccc(/C=C/C(=O)O)cc1)c1ccc2c(c1)CCC(=O)N2)c1ccccc1
6. CC/C(=C(/c1ccc(/C=C/C(=O)O)cc1)c1ccc2[nH]ncc2c1)c1cc2c(s1)CCN(C)C2
7. CC/C(=C(/c1ccc(/C=C/C(=O)Nc2nccs2)cc1)c1ccc2[nH]ncc2c1)c1ccccc1

Given back:
> 100 nM
> 100 nM
≤ 100 nM
> 100 nM
> 100 nM
> 100 nM
≤ 100 nM

Would you mind listing IC50 for each of the following compounds?
1. CC/C(=C(/c1ccc(OC[C@H](C)N2CC[C@@H](C)C2)cc1)c1ccc2[nH]ncc2c1)c1ccccc1Cl
2. CC/C(=C(/c1ccc(/C=C/C(=O)O)cc1)c1ccc2ccncc2c1)c1ccccc1
3. CC/C(=C(/c1ccc(/C=C/C(=O)O)cc1)c1ccc2[nH]ncc2c1)c1cnccc1C(F)(F)F
4. CC/C(=C(/c1ccc(/C=C/C(=O)O)cc1)c1ccc2[nH]ncc2c1)c1ccc(OCCO)cc1
5. CC/C(=C(/c1ccc(/C=C/C(=O)O)cc1)c1ccc2c(cnn2C(=O)C(C)(C)C)c1)c1ccc(F)cc1Cl

Given back:
≤ 100 nM
> 100 nM
≤ 100 nM
> 100 nM
≤ 100 nM

Count: 3. Required value per item: IC50.
1. CC/C(=C(/c1ccc(OC[C@H](C)N2CC[C@@H](C)C2)cc1)c1ccc2[nH]ncc2c1)c1ccncc1Cl
2. CC/C(=C(/c1ccc(/C=C/c2nn[nH]n2)cc1)c1ccc2scnc2c1)c1ccncc1Cl
3. CC/C(=C(/c1ccc(/C=C/C(=O)O)cc1)c1ccc2[nH]ncc2c1F)c1ccc(Oc2cnccn2)cc1

Given back:
1. ≤ 100 nM
2. ≤ 100 nM
3. ≤ 100 nM
